Entries and their melting point values follow.
reported_metric: melting point

CNS(=O)(=O)Nc1ccc(-c2c(C#N)c3ccc(OC4CCOCC4)cc3n2C2CCC2)cc1 | 218 to 220 °C
C[C@@H](OC(=O)Nc1ccc(-c2c(C#N)c3ccc(-c4cn(C)cn4)cc3n2C2CCC2)cc1)C1CC1 | 120 °C (dec.)
Cc1ccnc(Oc2ccc3c(C#N)c(-c4ccc(NC(=O)O[C@H](C)C5CC5)cc4Cl)n(C4CCC4)c3c2)n1 | 97 to 109 °C
CCn1c(-c2ccc(N3CCCS3(=O)=O)cc2)c(C#N)c2ccc(N3CCOCC3)cc21 | 247 to 248 °C
CCCS(=O)(=O)Nc1ccc(-c2c(C#N)c3ccc(N4CCCC4)cc3n2C2CCC2)cc1 | 229 to 234 °C
CC(C)Nc1ccc(-c2c(C#N)c3ccc(OC4CCOC4)cc3n2C2CC2)cc1 (stereo not shown) | 170 to 172 °C
CCOc1ccc2c(C#N)c(-c3ccc(NC(=O)OC4CCN(C(=O)OCCOC)CC4)cc3)n(C3CCC3)c2c1 | 185 to 190 °C

---

Each entry below lists one item and its recorded melting point value.
reported_metric: melting point

N#Cc1c(-c2ccc(Nc3nc(-c4ccc(F)cc4)cs3)cc2)n(C2CCC2)c2cc(OCCF)ccc12 [Compound 3206] | 234 to 236 °C
CCCS(=O)(=O)Nc1ccc(-c2c(C#N)c3ccc(Oc4ncccc4C#N)cc3n2C2CCC2)c(C)c1 [Compound 3273] | 227 to 230 °C
CC(OC(=O)Nc1ccc(-c2c(C#N)c3ccc(OC4CCOC4)cc3n2C2CCC2)cc1)C(F)(F)F (stereo not shown) [Compound 1457] | 183 to 184 °C
CCNC(=O)Oc1ccc2c(C#N)c(-c3ccc(NC(=O)O[C@H](C)C4CC4)cc3)n(C3CCC3)c2c1 [Compound 3170] | 192 to 194 °C
CS(=O)(=O)Nc1ccc(-c2c(C#N)c3ccc(C(=O)N4CCOCC4)cc3n2C2CCC2)cc1 [Compound 2897] | 247 to 249 °C
C[C@@H](OC(=O)Nc1ccc(-c2c(C#N)c3ccc(OCCN4C(=O)CCC4=O)cc3n2C2CCC2)cc1)C1CC1 [Compound 3271] | 80 to 83 °C
CCn1ccnc1CCOc1ccc2c(C#N)c(-c3ccc(NC(=O)OC(C)C)cc3)n(C3CCC3)c2c1 [Compound 2842] | 203 to 212 °C

---

reported_metric: melting point

C[C@@H](OC(=O)Nc1ccc(-c2c(C#N)c3ccc(N4CCCC4)cc3n2C2CC2)cc1)C1CC1 | 197 to 202 °C
C[C@@H](OC(=O)Nc1ccc(-c2c(C#N)c3ccc(Oc4ncccc4C#N)cc3n2C2CC2)cc1)C1CC1 | 183 to 185 °C
COCCOc1ccc2c(C#N)c(-c3ccc(NC(=O)OC(C)c4ccc(F)cc4)cc3)n(C(C)C)c2c1 (stereo not shown) | 89 to 112 °C
N#Cc1c(-c2ccc(NS(=O)(=O)C3CC3)cc2)n(C2CCC2)c2cc(N3CCCCC3)ccc12 | 232 to 238 °C

---

melting point values by entry
reported_metric: melting point

CC(C)OC(=O)Nc1ccc(-c2cc3ccc(Oc4nccnc4C#N)cc3n2CC2CC2)cc1 | 181 to 182 °C
COCCOc1ccc2c(C#N)c(-c3ccc(NC(=O)OC(C)C(F)(F)F)cc3)n(C(C)C)c2c1 (stereo not drawn) | 162 to 165 °C
CCSc1ccc2c(C#N)c(-c3ccc(NC(=O)O[C@H](C)C4CC4)cc3)n(C3CCC3)c2c1 | 120 to 122 °C
CC(C)NS(=O)(=O)Nc1ccc(-c2c(C#N)c3ccc(Oc4nccnc4Cl)cc3n2C2CCC2)cc1 | 144 to 146 °C
COCCOc1ccc2c(C#N)c(-c3ccc(NC(=O)OC(c4ccccc4)C(F)(F)F)cc3)n(C(C)C)c2c1 (stereo not drawn) | 150 to 155 °C
CC(C)OC(=O)Nc1c(F)cc(-c2c(C#N)c3ccc(Oc4ncccn4)cc3n2C2CCC2)cc1F | 144 to 154 °C
CC(C)n1c(-c2ccc(NC(=O)O[C@H](C)C(F)(F)F)cc2)c(C#N)c2ccc(N3CCOCC3)cc21 | 148 to 150 °C
N#Cc1c(-c2ccc(N)cc2)n(C2CC2)c2cc(OC3CCOC3)ccc12 (stereo not drawn) | 199 to 201 °C
C[C@@H](OC(=O)Nc1ccc(-c2c(C#N)c3ccc(O[C@H]4CCOC4)cc3n2C2CCC2)cc1)C1CC1 | 166 to 168 °C
C=COC(=O)Nc1cccc(-c2c(C#N)c3ccc(OCC)cc3n2C2CCC2)c1 | 163 to 164 °C
CCn1c(-c2ccc(NC(=O)N3CCC(C)CC3)cc2)c(C#N)c2ccc(OCCOC)cc21 | 152 to 155 °C
CC(C)n1c(-c2ccc(NC(=O)O[C@H](C)C3CC3)cc2)c(C#N)c2ccc(OC3CCOCC3)cc21 | 208 to 210 °C
COCCN(CCOC)C(=O)c1ccc2c(C#N)c(-c3ccc(NC(=O)O[C@H](C)C4CC4)cc3)n(C3CCC3)c2c1 | 75 to 77 °C
COCCOc1ccc2c(C#N)c(-c3ccc(C(=O)N[C@@H](C)c4ccccc4)cc3)n(C3CCC3)c2c1 | 149 to 152 °C
Cc1nccnc1Oc1ccc2c(c1)c(C#N)c(-c1ccc(NC(=O)O[C@H](C)C3CC3)cc1)n2C1CCC1 | 214 to 215 °C

---

Entries and their melting point
reported_metric: melting point

CCn1c(-c2ccc(NC(=O)C3CC3)cc2)c(C#N)c2ccc(OCCN(C)CCN(C)C)cc21 [Compound 1413] | 90.2 to 95.4 °C
CS(=O)(=O)Nc1ccc(-c2c(C#N)c3ccc(N4CCOCC4)cc3n2C2CCC2)cc1 [Compound 2915] | 269 to 271 °C
C[C@H](NS(=O)(=O)Nc1ccc(-c2c(C#N)c3ccc(Oc4ncccc4Cl)cc3n2C2CCC2)cc1)C1CC1 [Compound 3017] | 120 to 125 °C
C[C@@H](OC(=O)Nc1ccc(-c2c(C#N)c3cc(Oc4nccnc4Cl)ccc3n2C2CCC2)cc1)C1CC1 [Compound 3255] | 209 to 211 °C
N#Cc1c(-c2ccc(N3CCCS3(=O)=O)cc2)n(CC2CC2)c2cc(N3CCOCC3)ccc12 [Compound 2921] | 241 to 245 °C
COCCOc1ccc2c(C#N)c(-c3ccc(NC(C4CC4)C4CC4)cc3)n(C(C)C)c2c1 [Compound 2671] | 148 to 150 °C
CCN(C)C(=O)c1ccc2c(C#N)c(-c3ccc(NS(=O)(=O)C4CC4)cc3)n(C3CCC3)c2c1 [Compound 2296] | 202 to 205 °C
N#Cc1c(-c2ccc(NC(=O)O[C@H](c3ccccc3)C(F)(F)F)cc2)n(C2CCC2)c2cc(OCC3OCCO3)ccc12 [Compound 2806] | 175 to 176 °C
COCCOc1ccc2c(C#N)c(-c3ccc(NC(=O)OC(C)c4ccc(F)cc4)cc3)n(C3CC3)c2c1 (centres unmarked) [Compound 1439] | 74 to 76 °C
Cc1cccc(Oc2ccc3c(c2)c(C#N)c(-c2ccc(NC(=O)O[C@H](C)C4CC4)cc2)n3C2CCC2)n1 [Compound 3257] | 205 to 208 °C
C[C@@H](OC(=O)Nc1ccc(-c2c(C#N)c3ccc(OC4COCOC4)cc3n2C2CCC2)cc1)C(F)(F)F [Compound 2885] | 189 to 190 °C
Cc1cc(-c2c(C#N)c3ccc(OC4CCOCC4)cc3n2C2CCC2)ccc1NC(=O)OC(C)C [Compound 2889] | 129 to 130 °C
N#Cc1c(-c2ccc(NS(=O)(=O)C3CCC3)cc2)n(C2CCC2)c2cc(OC3COCOC3)ccc12 [Compound 2919] | 200 to 204 °C
N#Cc1c(-c2ccc(NS(=O)(=O)C3CC3)cc2)n(C2CCC2)c2cc(C(=O)N3CCOCC3)ccc12 [Compound 2825] | 125 to 128 °C
N#Cc1nccnc1Oc1ccc2c(C#N)c(-c3ccc(NS(=O)(=O)CC4CCC4)cc3)n(CC3CC3)c2c1 [Compound 3238] | 205 to 208 °C
Cc1cccnc1-c1ccc2c(C#N)c(-c3ccc(NC(=O)O[C@H](C)C4CC4)cc3)n(C3CCC3)c2c1 [Compound 2999] | 226 to 228 °C
Cc1cc(-c2c(C#N)c3ccc(OCC(F)F)cc3n2C2CCC2)ccc1NC(=O)OC(C)C(F)(F)F (centres unmarked) [Compound 3049] | 154 to 155 °C
CCCS(=O)(=O)Nc1ccc(-c2c(C#N)c3ccc(Oc4ncccc4C#N)cc3n2C2CCC2)cc1C [Compound 3290] | 176 to 180 °C
C[C@@H](OC(=O)Nc1ccc(-c2c(C#N)c3ccc(O[C@@H]4CCOC4)cc3n2C2CCC2)cc1)C(F)(F)F [Compound 2853] | 189 to 190 °C
CC(OC(=O)Nc1ccc(-c2c(C#N)c3ccc(OC4CCOCC4)cc3n2C2CC2)cc1)C(C)(C)C (centres unmarked) [Compound 2648] | 203 to 205 °C
CC(C)c1ccc(Nc2ccc(-c3c(C#N)c4ccc(OC5CCOCC5)cc4n3C3CCC3)cc2)cc1 [Compound 3127] | 185 to 188 °C
N#Cc1c(-c2ccc(N(CCF)c3nc(C(F)(F)F)cs3)cc2)n(C2CCC2)c2cc(OCCF)ccc12 [Compound 3188] | 137 to 138 °C
N#Cc1c(-c2ccc(NS(=O)(=O)C3CC3)cc2)n(CC2CC2)c2cc(N3CCCCC3)ccc12 [Compound 2908] | 191 to 194 °C
CCC(C)C(C)OC(=O)Nc1ccc(-c2c(C#N)c3ccc(OC4CCOC4)cc3n2C2CCC2)cc1 (centres unmarked) [Compound 1459] | 183 to 184 °C
CCCS(=O)(=O)Nc1cc(C)c(-c2c(C#N)c3ccc(Oc4nccnc4C#N)cc3n2C2CCC2)cc1C [Compound 3336] | 257 to 259 °C
C[C@@H](OC(=O)Nc1ccc(-c2c(C#N)c3ccc(Oc4nccc(C(F)(F)F)n4)cc3n2C2CCC2)cc1)C1CC1 [Compound 2924] | 119 to 121 °C
N#Cc1c(-c2ccc(NS(=O)(=O)C3CC3)cc2)n(C2CCC2)c2cc(OC3CCS(=O)(=O)CC3)ccc12 [Compound 3185] | 279 to 285 °C
C[C@@H](OC(=O)Nc1ccc(-c2c(C#N)c3cc(Oc4cnccn4)ccc3n2C2CCC2)cc1)C1CC1 [Compound 2995] | 206 to 208 °C
CC(C)OC(=O)Nc1ccc(-c2c(C#N)c3ccc(-n4ccccc4=O)cc3n2C2CCC2)cc1 [Compound 3277] | 267 to 268.5 °C
